Test system: NCI-H23 lung
Assay: NCI-60 one-dose screen, 48 h
Conditions: 10 µM unless noted
The panel holds about 83,000 compounds, 20% with a hit somewhere; the sample as a whole holds those more often. Calls of active or inactive are those of the source. How the source made its calls: active means growth percent below 10; inactive means the rest.
Your reply should match one of these outcome classes. active, inactive

Look over these answered cases.
- molecule: "Cn1ncc(CC(=O)O)c1-n1nnc2cc(Cl)ccc2c1=O"
  classLabel: "inactive"
- molecule: "CCCCCCCCCCCCCC[n+]1ccc2c(C)c3c(c(C)c2c1)c1cc(O)ccc1n3CC"
  classLabel: "active"
- molecule: "O=c1n(C2OC(CO)C(O)C2O)ccc2nccn12 (stereo unspecified)"
  classLabel: "inactive"
- molecule: "Fc1ccc(/C=C/c2cc(/C=C/c3ccc(F)cc3)n(-c3cc(F)cc(F)c3)n2)cc1"
  classLabel: "inactive"
- molecule: "C(=N\\Nc1nnc2n1N=C(c1ccccc1)CS2)/c1ccc(OCc2ccccc2)cc1"
  classLabel: "inactive"

Here's the next entry for you.
Enquiry: Hey, what did the test say about `CN1CCN(Cc2ccc(NC(=O)c3cncc(C#Cc4c(N)ncc5ccccc45)c3)cc2C(F)(F)F)CC1` ?
Return: active

---

Tested on: RXF 393 renal
Assay: NCI-60 one-dose screen, 48 h
Settings: 10 µM unless noted
About 83,000 compounds went through this panel and 20% of them were active in at least one assay; those are over-represented in the sample as a whole. Active and inactive are the calls of the source. How the source made its calls: active means growth percent below 10; inactive means the rest.
Response enum: true = active, false = inactive

- compound: "COc1ccc(NC(=O)c2ccc(Cl)cc2Cl)cc1"
  classLabel: "false"
- compound: "CN(C)c1ccc(/C=C/C2=[N+](C)c3ccccc3C2(C)C)cc1"
  classLabel: "false"
- compound: "CCCS(=O)(=O)Nc1cccc(Nc2ncnc3cc(NC(=O)CCl)ccc23)c1Cl"
  classLabel: "true"
- compound: "CC(C)(C)n1cc(-c2ccnc(NCCNS(=O)(=O)c3ccc(C(F)(F)F)cc3)c2)c(-c2ccccc2)n1"
  classLabel: "false"
- compound: "CCC(=C(c1ccc(OCCN(CC)CC)cc1)c1ccc(OCCN(CC)CC)cc1)c1ccc(Cl)cc1"
  classLabel: "true"

Consider the additional compound presented here.
Enquiry: Just curious, what result did `COc1ccc2c(c1)C(c1c[nH]c3ccccc13)(c1c[nH]c3ccccc13)CCO2` get here?
Return: false

---

System: NCI-H226 lung
Experiment: NCI-60 one-dose screen, 48 h (100 = growth as untreated, 0 = no growth, -100 = all killed)
Details: 10 µM unless noted
This is part of a sample that, as a whole, favours compounds with a hit. Of some 83,000 tested, about 20% had one in any assay. Calls of active or inactive are those of the source. How the source made its calls: active means growth percent below 10; inactive means the rest.
attributeMeasured: growth

Some solved entries appear below for comparison.
- molecule: "CC(=O)CC(=O)c1ccccc1.[Cu+2]"
  experimentalSystem: "NCI-H226 lung"
  recordedResult: "114% (inactive)"
- molecule: "COc1cc(/C=C2\\CN(S(=O)(=O)c3ccc(C)cc3)C/C(=C\\c3cc(CN4CCCC4)c(O)c(OC)c3)C2=O)cc(CN2CCCC2)c1O"
  experimentalSystem: "NCI-H226 lung"
  recordedResult: "31.9% (inactive)"
- molecule: "COc1cc2c(c(OC)c1OC)CCC(c1cccc(C(=O)Nc3ccccc3Br)c1)O2 (stereo not given)"
  experimentalSystem: "NCI-H226 lung"
  recordedResult: "92.3% (inactive)"
- molecule: "O=C(OCC(O)C(=O)NC12CC3CC(CC(C3)C1)C2)c1cccc(Br)c1 (stereo not given)"
  experimentalSystem: "NCI-H226 lung"
  recordedResult: "97.5% (inactive)"

Kindly review the next molecule as well.
Record `O=c1c(Cc2ccc(F)cc2)cc(-c2ccccc2)nn1C/C(=N/O)c1ccccc1` . Reported growth: 57.1% (inactive)
